Origin of values: the supplement of paper PMC9732359

Reported protein stability index is given for each of the following sequences.
Assay: protein stability index of a GFP-peptide fusion (yeast GPS) (PSI 1-4); higher = more stable; sorted into four equal gates, so the index is relative within each strain
Conditions: ubr1∆
measure: protein stability index

[[record]]
residue_sequence = "LRAHTDDSRNPDCKIKI [PRE2]"
observed = 2.77

[[record]]
residue_sequence = "EAIDGNGEIKGENIDAD [SNF2]"
observed = 3.25

[[record]]
residue_sequence = "ISICMILCGIQEYLNPV [YDL116W/NUP84]"
observed = 1.87

[[record]]
residue_sequence = "VRTRGGNKKYRALRIET [RPS8A]"
observed = 2.85

[[record]]
residue_sequence = "ASITGTGSNDRCIGDSD [YMR129W/POM152]"
observed = 2.88

[[record]]
residue_sequence = "NTNNNNTNNNNNPANNT [SWI1]"
observed = 3.3

[[record]]
residue_sequence = "IAKIKKVCECVCMHCGK [RPO21]"
observed = 2.43

[[record]]
residue_sequence = "CEIHPSMILGVAASIIP [RPB2]"
observed = 1.35

[[record]]
residue_sequence = "FEGTPPFSLTYVRTEET [YMR129W/POM152]"
observed = 2.6

[[record]]
residue_sequence = "SSVIQNYDIITASSLAH [YML103C/NUP188]"
observed = 2.03

[[record]]
residue_sequence = "QLNASISLIPELSVVLS [RRI2]"
observed = 2.73

[[record]]
residue_sequence = "AHRIMLTNILRMMGCVK [FAS2]"
observed = 2.41

[[record]]
residue_sequence = "LISIHSRENNSEYMVFG [YJL039C/NUP192]"
observed = 3.15

[[record]]
residue_sequence = "DIDAVNGAVGKREGKTR [ISW2]"
observed = 3.4

[[record]]
residue_sequence = "DAIAVTKGHGFEGVTHR [RPL3]"
observed = 3.36

[[record]]
residue_sequence = "IKNFKSLLLSSSFKEDC [SSN2]"
observed = 3.11

[[record]]
residue_sequence = "NEYPVADAVTKDLKLRR [REC8]"
observed = 3.23

[[record]]
residue_sequence = "VVIDAKDHLLGRLASTI [RPL16B]"
observed = 1.35

[[record]]
residue_sequence = "FFLQRKLRSELGYKDTS [BRR2]"
observed = 1.35

[[record]]
residue_sequence = "KNAGLGFKTPKTAIEGS [RPS11A]"
observed = 3.13

[[record]]
residue_sequence = "LFSKNRNEVLESMDFLV [YCS4]"
observed = 2.62

[[record]]
residue_sequence = "DDEHNPTIVGGLYYQRP [AAR2]"
observed = 2.96

[[record]]
residue_sequence = "NDSFKGLITNKMWFDVQ [PRP8]"
observed = 3.08

